- Test system: ACHN
- experimental-protocol: NCI tumour cell line growth inhibition, 48 h
Calls of active or inactive are those of the source. Rule as the data show it: active = GI50 up to about 1.1 µM and inactive = higher.
recorded-metric: GI50

Would you please look over these solved cases?
Param item = COc1ccc(-c2nc(Nc3ccccc3)sc2Cc2sc(Nc3ccccc3)nc2-c2ccc(OC)cc2)cc1 ; retrieve measured GI50.
45.1 µM (inactive)

Param item = O=C1/C(=C/c2ccccc2[N+](=O)[O-])N=C(c2ccccc2)N1c1nc2ccccc2s1 ; retrieve measured GI50.
23.2 µM (inactive)

Param item = COC1(OC)N=C(N)C2(C#N)C(c3ccccc3)NC3=C(CCC3)C12C#N (stereo unspecified) ; retrieve measured GI50.
> 100 µM (inactive)

Param item = C#CCSc1nc(N)c2ncn(C3OC(CO)C(O)C3O)c2n1 (stereo unspecified) ; retrieve measured GI50.
> 100 µM (inactive)

Param item = C/C(CCc1ccccc1)=N\NC(N)=S ; retrieve measured GI50.
> 100 µM (inactive)

Continuing:
Param item = O=C1/C(=C/c2ccc(O)cc2)Oc2ccccc21 ; retrieve measured GI50.
> 100 µM (inactive)

====

- Test system: ACHN
- experimental-protocol: NCI tumour cell line growth inhibition, 48 h
The source made the active and inactive calls. Rule as the data show it: active = GI50 up to about 1.1 µM and inactive = higher.
recorded-metric: GI50

Would you please look over these solved cases?
Param item = Brc1c(C#CCC(c2ccccc2)(c2ccccc2)c2ccccc2)ccc(C#CCC(c2ccccc2)(c2ccccc2)c2ccccc2)c1Br ; retrieve measured GI50.
> 100 µM (inactive)

Param item = CCCCCCCCCCCCCCCCOCC(CC(F)(F)P(=O)(OCC)OCC)OC(C)=O (stereo unspecified) ; retrieve measured GI50.
13.9 µM (inactive)

Param item = Oc1c(Cl)c(Cl)c(O)c(CCNc2ccc3ncccc3c2)c1Cl ; retrieve measured GI50.
13.7 µM (inactive)

Continuing:
Param item = O=c1nc2n(cc1/C=C\Br)C1CC(O)C(CO2)O1 (stereo unspecified) ; retrieve measured GI50.
> 100 µM (inactive)

Param item = O=C1c2ccccc2-n2c1nc1cc(Cl)ccc1c2=O ; retrieve measured GI50.
> 100 µM (inactive)

Param item = Fc1ccc(/N=C/C=C/Nc2ccc(F)cc2)cc1 ; retrieve measured GI50.
0.11 µM (active)

Param item = O=C(c1ccccc1)c1ccc2c(c1)nc1n2C(c2c(Cl)cccc2Cl)SC1 (stereo unspecified) ; retrieve measured GI50.
71.6 µM (inactive)

Param item = CC1=CC=NN2C(=O)[C@H](C)C2C1 (stereo partly specified) ; retrieve measured GI50.
> 100 µM (inactive)

Param item = COC(=O)CN1CCN(c2cccc3c2CCCC3)CC1 ; retrieve measured GI50.
72.9 µM (inactive)

Param item = CCCCOC(=O)CNC(=O)OCCCCC#CC#CCCCCOC(=O)NCC(=O)OCCCC ; retrieve measured GI50.
> 100 µM (inactive)

Param item = CC(C)(C)N1C(=O)c2ccccc2C1(O)C(F)(F)F (stereo unspecified) ; retrieve measured GI50.
> 100 µM (inactive)

====

// values below are reported GI50
- Test system: MCF7
- experimental-protocol: NCI tumour cell line growth inhibition, 48 h
Activity calls are given as the source filed them. No stated cut-off is given here; in the data, active = GI50 up to about 1.1 µM and inactive = higher.

Would you please look over these solved cases?
Notebook: pull reported GI50 for MCF7, entry CC1C2CC(C(S(=O)(=O)O)C2=O)C1(C)C (stereo not given)
> 100 µM (inactive)

Notebook: pull reported GI50 for MCF7, entry CCC1CC2CN3CCc4c([nH]c5c(-c6c(OC)ccc7c8c([nH]c67)[C@]6(C(=O)OC)CC7CC(CC)C6N(CC8)C7)c(O)ccc45)[C@](C(=O)OC)(C2)C13 (stereo not given in full)
6.82 µM (inactive)

Notebook: pull reported GI50 for MCF7, entry CNC1NC(=O)c2ccccc2N1Cc1ccc(F)cc1 (stereo not given)
> 100 µM (inactive)

Notebook: pull reported GI50 for MCF7, entry COc1ccc(NC(=S)Nc2cc(C)ccn2)cc1
> 100 µM (inactive)

Notebook: pull reported GI50 for MCF7, entry COc1ccc(-c2nc(Nc3ccccc3)sc2Cc2sc(Nc3ccccc3)nc2-c2ccc(OC)cc2)cc1
8.05 µM (inactive)

Notebook: pull reported GI50 for MCF7, entry CCOC(=O)C1=CC(C)(C(=O)OCC)Nc2c(nc(OC)n(C)c2=O)N1 (stereo not given)
> 10 µM (inactive)

Notebook: pull reported GI50 for MCF7, entry Cc1ccc(C)c(NC(=O)C(=O)C2C(=O)C3=C(CC2(C)C)Nc2ccccc2S3)c1 (stereo not given)
> 100 µM (inactive)

Notebook: pull reported GI50 for MCF7, entry CCCCN(CCCC)c1ccc(/N=N/c2ccc(S(=O)(=O)O)cc2)cc1
21.9 µM (inactive)

Notebook: pull reported GI50 for MCF7, entry CC1=CC(C2/C(=N/O)C=C(C)CC2(C)C)C(O)C(C)(C)C1 (stereo not given)
15.3 µM (inactive)

From here, focus on the item given below.
Notebook: pull reported GI50 for MCF7, entry COC(=O)/C(C#N)=C(\Nc1ccccc1)N1CCCCC1
> 100 µM (inactive)

====

// values below are reported GI50
- Tested on: NCI-H460
- experimental-protocol: NCI tumour cell line growth inhibition, 48 h
The source made the active and inactive calls. Rule as the data show it: active = GI50 up to about 1.1 µM and inactive = higher.

Param item = O=C(/C=C/c1ccsc1)c1ccsc1 ; retrieve measured GI50.
23.7 µM (inactive)

Param item = CC(=O)c1c2c(cc3c1CC1(C3)Cc3cc4c(c(C(C)=O)c3C1)CCC4)CCC2 ; retrieve measured GI50.
> 100 µM (inactive)

Param item = O=C1Oc2cc3c(c4cccc1c24)OCN(c1ccccc1)C3 ; retrieve measured GI50.
> 100 µM (inactive)

====

- System: SNB-75
- experimental-protocol: NCI tumour cell line growth inhibition, 48 h
Calls of active or inactive are those of the source. Rule as the data show it: active = GI50 up to about 1.1 µM and inactive = higher.
Reply using exactly one outcome from Y = active, N = inactive

Would you mind telling me which call this test gave O=C(OC(=O)n1ccc2ccccc21)n1ccc2ccccc21 ?
N

Would you mind telling me which call this test gave COc1cc(C(SCc2ccccc2)SCc2ccccc2)ccc1O ?
N

Would you mind telling me which call this test gave CCCCCCCCCCCCCS(=O)(=O)O ?
N

Continuing:
Would you mind telling me which call this test gave Cn1c(=O)[nH]c2sc3c(c2c1=N)CCCC3 ?
N

Would you mind telling me which call this test gave O=c1[nH]cc(F)c(=O)[nH]1 ?
N

Would you mind telling me which call this test gave Nc1ncnc2sc(Nc3ccccc3)nc12 ?
N

Would you mind telling me which call this test gave C[C@@H]1C[C@@H](O)[C@]2(O)O[C@@H]3C[C@@]4(C=O)[C@@H](CC[C@@H]5[C@@H]4CC[C@]4(C)[C@@H](C6=CC(=O)OC6)CC[C@]54O)C[C@H]3O[C@@H]2O1 ?
Y

Would you mind telling me which call this test gave Oc1ccc(-c2c3ccccc3c(-c3ccc(O)cc3)c3ccccc23)cc1 ?
N

Would you mind telling me which call this test gave CCN(CC)CCN1C(=O)C(=O)N(c2cccc3ccccc23)C1=O ?
N

====

- Tested on: CCRF-CEM
- experimental-protocol: NCI tumour cell line growth inhibition, 48 h
The source made the active and inactive calls. Rule as the data show it: active = GI50 up to about 1.1 µM and inactive = higher.
Reply using exactly one outcome from YES = active, NO = inactive

Would you mind telling me which call this test gave C#CCSc1nc(N)c2ncn(C3OC(CO)C(O)C3O)c2n1 (stereo not given) ?
NO

Would you mind telling me which call this test gave CC1=CC(C2/C(=N/O)C=C(C)CC2(C)C)C(O)C(C)(C)C1 (stereo not given) ?
NO

Would you mind telling me which call this test gave CC(=O)N1CCC2(c3ccccc3N(C(C)=O)C2c2ccc(O)cc2)C1C(=O)O (stereo not given) ?
NO

Would you mind telling me which call this test gave CC1CCC2CC(=O)OC([C@@H]3C(=O)O[C@@H](C4=CCCC4)C4C(C)CCC43)C12 (stereo not given in full) ?
NO

Would you mind telling me which call this test gave O=C(Nc1cccc(Cl)c1)Nn1cnnc1 ?
NO

Would you mind telling me which call this test gave COc1ccc(C(=O)/C=C/c2ccc3c(c2)OCO3)c(OCc2ccccc2)c1 ?
NO

Continuing:
Would you mind telling me which call this test gave Nc1nc(Cl)cc(NCCCCCCNc2cc(Cl)nc(N)n2)n1 ?
NO

Would you mind telling me which call this test gave COc1ccc(/C=N/NC(=O)c2cnc3[nH]c(=O)n(C)c(=O)c3c2)cc1 ?
NO

Would you mind telling me which call this test gave CCCCCCCCCCCC[C@@H](O)[C@H]1CC[C@H]([C@H]2CC[C@H]([C@H](O)CC[C@H](O)CCCCCCCC3=C[C@H](C)OC3=O)O2)O1 ?
YES

====

- Test system: PC-3
- experimental-protocol: NCI tumour cell line growth inhibition, 48 h
The source made the active and inactive calls. Rule as the data show it: active = GI50 up to about 1.1 µM and inactive = higher.
// values below are reported GI50

Param item = Fc1ccc(/N=C/C=C/Nc2ccc(F)cc2)cc1 ; retrieve measured GI50.
8.91 µM (inactive)

Continuing:
Param item = [O-][S+](Nc1ccccc1)c1ccccc1Oc1ccccc1 (configuration not stated) ; retrieve measured GI50.
39.2 µM (inactive)

Param item = CSc1ncc2c(n1)-c1ccccc1OC2N1CCCC1 (configuration not stated) ; retrieve measured GI50.
57.3 µM (inactive)

Param item = CC(=O)c1c2c(cc3c1CC1(Cc4cc5c(cc4C1)CCC5)C3)CCC2 ; retrieve measured GI50.
> 100 µM (inactive)

Param item = CCN(Cc1cc(Cl)cc(C)c1O)Cc1c(O)ccc2ccccc12 ; retrieve measured GI50.
15.5 µM (inactive)

Param item = N#CC(/N=N/c1ccccc1C(=O)O)C(N)=O (configuration not stated) ; retrieve measured GI50.
> 100 µM (inactive)

Param item = Cc1cccc(/N=N/c2c(C)nn(C(=O)CC(=O)Nc3ccc(Cl)cc3)c2C)c1 ; retrieve measured GI50.
69 µM (inactive)

Param item = CCCCCCCCCCCCC1N=C(N)N2CCCC2=C1C(=O)OC (configuration not stated) ; retrieve measured GI50.
1.62 µM (inactive)

Param item = OC1CCCCCCCCCCC1[S+]1CCCC1.O[B-](F)(F)F (configuration not stated) ; retrieve measured GI50.
56.8 µM (inactive)

Param item = O=c1[nH]cc(F)c(=O)[nH]1 [FLUOROURACIL] ; retrieve measured GI50.
50.6 µM (inactive)

Param item = Cc1cc2c(cc1Cl)SC(NN(C)C)=NS2(=O)=O ; retrieve measured GI50.
> 10 µM (inactive)

Param item = O=c1[nH]ncc2[nH]c3c(c12)CCc1ccccc1-3 ; retrieve measured GI50.
27.2 µM (inactive)
